The measured values listed here are drawn from the NIST ThermoML archive (doi:10.1021/je700062x).

// viscosity lookup, one value per entry
- ASSAY TEXT: wn = mass fraction of the nth substance listed
- REPORTED CONDITIONS: 283.15 K; 101 kPa; Liquid; controlled-strain rheometer (ARES-RFS, TA Instruments); w1 = 0.2
Field: numeric (mPa·s). Do not append units.

Example cases with answers are listed next.
COMPOUND | viscosity / mPa·s
O=C[C@H](O)[C@@H](O)[C@H](O)[C@H](O)CO [D-glucose] + O | 2.93
O=C(CO)[C@@H](O)[C@H](O)[C@H](O)CO [D-fructose] + O | 2.859
OC[C@H]1O[C@@](CO)(O[C@H]2O[C@H](CO)[C@@H](O)[C@H](O)[C@H]2O)[C@@H](O)[C@@H]1O [D-sucrose] + O | 3.01

Then this compound:
The measured viscosity associated with O=C[C@H](O)[C@@H](O)[C@@H](O)[C@H](O)CO [(+)-galactose] + O reads 2.76

###

// viscosity lookup, one value per entry
- ASSAY TEXT: wn = mass fraction of the nth substance listed
- REPORTED CONDITIONS: 278.15 K; 101 kPa; Liquid; controlled-strain rheometer (ARES-RFS, TA Instruments); w1 = 0.1
Field: numeric (mPa·s). Do not append units.

Example cases with answers are listed next.
COMPOUND | viscosity / mPa·s
O=C[C@H](O)[C@@H](O)[C@H](O)[C@H](O)CO [D-glucose] + O | 2.47
O=C(CO)[C@@H](O)[C@H](O)[C@H](O)CO [D-fructose] + O | 2.44
OC[C@H]1O[C@@](CO)(O[C@H]2O[C@H](CO)[C@@H](O)[C@H](O)[C@H]2O)[C@@H](O)[C@@H]1O [D-sucrose] + O | 2.472

Then this compound:
The measured viscosity associated with O=C[C@H](O)[C@@H](O)[C@@H](O)[C@H](O)CO [(+)-galactose] + O reads 2.4

###

- ASSAY TEXT: wn = mass fraction of the nth substance listed
- REPORTED CONDITIONS: 278.15 K; 101 kPa; Liquid; controlled-strain rheometer (ARES-RFS, TA Instruments); w1 = 0.2
REPORTED ENDPOINT: viscosity (mPa·s)
Field: numeric (mPa·s). Do not append units.

Example cases with answers are listed next.
MOLECULE | UNITS SYMBOL | viscosity
OC[C@H]1O[C@@](CO)(O[C@H]2O[C@H](CO)[C@@H](O)[C@H](O)[C@H]2O)[C@@H](O)[C@@H]1O [D-sucrose] + O | mPa·s | 3.48
O=C[C@H](O)[C@@H](O)[C@H](O)[C@H](O)CO [D-glucose] + O | mPa·s | 3.46
O=C(CO)[C@@H](O)[C@H](O)[C@H](O)CO [D-fructose] + O | mPa·s | 3.39

Then this molecule:
The measured viscosity associated with O=C[C@H](O)[C@@H](O)[C@@H](O)[C@H](O)CO [(+)-galactose] + O reads 3.37

###

- ASSAY TEXT: wn = mass fraction of the nth substance listed
- REPORTED CONDITIONS: 278.15 K; 101 kPa; Liquid; controlled-strain rheometer (ARES-RFS, TA Instruments); w1 = 0.3
± gives the expanded uncertainty stated by the source.
// viscosity lookup, one value per entry

The measured viscosity associated with OC[C@H]1O[C@@](CO)(O[C@H]2O[C@H](CO)[C@@H](O)[C@H](O)[C@H]2O)[C@@H](O)[C@@H]1O [D-sucrose] + O reads 5.99 ± 0.6 mPa·s

The measured viscosity associated with O=C(CO)[C@@H](O)[C@H](O)[C@H](O)CO [D-fructose] + O reads 5.5 ± 0.55 mPa·s

The measured viscosity associated with O=C[C@H](O)[C@@H](O)[C@H](O)[C@H](O)CO [D-glucose] + O reads 5.94 ± 0.6 mPa·s

The measured viscosity associated with O=C[C@H](O)[C@@H](O)[C@@H](O)[C@H](O)CO [(+)-galactose] + O reads 5.34 ± 0.54 mPa·s
